All figures here come from patent US20060111335A1.

Experiment: Reversed phase HPLC elution on C8 column as measure of hydrophobicity
Type: physicochemical
Settings: 45% acetonitrile in 100 mM ammonium acetate pH 5.4
Procedure: Reversed phase high performance liquid chromatography (RP-HPLC) was carried out on C8 columns. Compounds were tested using 20%, 30% and 45% acetonitrile in 100 mM ammonium acetate at pH 5.4 for elution on a C8 column, with the intention of achieving an elution time of about 15 minutes. It was expected that the more hydrophobic a compound, the higher the acetonitrile content one would need for the eluent.
reported_metric: elution time

CN(C)C1=c2ccc3c4c2[N](C=C1)[Rh+]1([Cl])([Cl])([N]4C=CC=3N(C)C)[N]2C=CC(N(C)C)=c3ccc4c(c32)[N]1C=CC=4N(C)C.[Cl-] [BISNMe2]
about 15 minutes
COC1=c2ccc3c4c2[N](C=C1)[Rh+]1([Cl])([Cl])([N]4C=CC=3OC)[N]2C=CC(OC)=c3ccc4c(c32)[N]1C=CC=4OC.[Cl-] [TMOBP]
about 15 minutes
[Cl-].[Cl][Rh+]12([Cl])([N]3C=CC=c4c3c3c(c5nccnc45)=CC=C[N]31)[N]1C=CC=c3c1c1c(c4nccnc34)=CC=C[N]12
8 to 10 min
[Cl-].[Cl][Rh+]12([Cl])([N]3C=CC=c4c3c3c(c5nc6ccccc6nc45)=CC=C[N]31)[N]1C=CC=c3c1c1c(c4nc5ccccc5nc34)=CC=C[N]12 [BISDPPZ]
around 30 minutes
[Cl-].[Cl][Rh+]12([Cl])([N]3C=CC(c4ccccc4)=c4ccc5c(c43)[N]1C=CC=5c1ccccc1)[N]1C=CC(c3ccccc3)=c3ccc4c(c31)[N]2C=CC=4c1ccccc1 [TPBP]
around 30 minutes
[Cl-].[Cl][Rh+]12([Cl])([N]3C=CC=c4ccc5c(c43)[N]1C=CC=5)[N]1C=CC=c3c1c1c(c4nc5ccccc5nc34)=CC=C[N]12 [DPPZPHEN]
about 15 minutes
CC(C)OC1=c2ccc3c4c2[N](C=C1)[Rh+]1([Cl])([Cl])([N]4C=CC=3OC(C)C)[N]2C=CC(OC(C)C)=c3ccc4c(c32)[N]1C=CC=4OC(C)C.[Cl-] [TIOBP]
about 15 minutes
CC1=C[N]2c3c4c(ccc3=C1C)=C(C)C(C)=C[N]4[Rh+]21([Cl])([Cl])[N]2C=C(C)C(C)=c3ccc4c(c32)[N]1C=C(C)C=4C.[Cl-] [OCTBP]
about 15 minutes
